Each recorded value in this set is attributed to paper PMC6967409.

Tested on: P. berghei ANKA GFP-Luc-SMcon sporozoites
Assay: P. berghei-luciferase liver stage bioluminescence assay (causal prophylactic mode) in HepG2-CD81 cells
Type: cell-based, Plasmodium berghei
Conditions: two biological replicates listed in one cell; listed as 7 Artemiside (GC008); read-out: P.berghei-Luciferase Liver Stage Bioluminescence Assay: IC50
Protocol: Briefly, HepG2-CD81 cells were seeded into 1,536 well plates containing 50 nL of test and control compounds diluted into DMSO. […] Next, 2 μL of luciferin reagent (Promega BrightGlo) was added to each well and luciferase activity was detected using a Perkin Elmer Envision plate reader. […] In parallel, plates were processed without sporozoites for HepG2 toxicity measurements. In continuation of the transmission blocking theme, it is important to establish activities against liver stage parasites. […]
Experimental Readout: pIC50
Please express pIC50 as -log10 of the molar concentration.

Req: Kindly indicate its recorded pIC50. Item: C[C@H]1[C@H](N2CCSCC2)O[C@@H]2O[C@@]3(C)CC[C@H]4[C@H](C)CC[C@@H]1[C@@]24OO3 [Artemiside 7, artemiside]
Resp: 7.06

* * *

tested on: HepG2 cells; assay: HepG2 cytotoxicity bioluminescence assay (CellTiterGlo, ATP); assay type: cell-based, human; settings: two biological replicates listed in one cell; listed as 23 (WHN-11)
Experimental Readout: pIC50
Please express pIC50 as -log10 of the molar concentration.

Req: Kindly indicate its recorded pIC50. Item: `C[C@H]1[C@H](N2CCN(C(=O)Nc3ccc(C(F)(F)F)cc3)CC2)O[C@@H]2O[C@@]3(C)CC[C@H]4[C@H](C)CC[C@@H]1[C@@]24OO3`
Resp: 5.41

* * *

assay: Cytotoxicity, MTT assay; assay type: cell-based; settings: Chinese hamster, CHO cells
# key: entry, value: EC50
Field format: number, assumed µM, no unit text.

Known results for compounds:
>>> print(df.to_string())
                               query_smiles  experimental_readout  value_measured
0  C[C@H]1[C@H](NS(=O)(=O)N2CCN(c3ccc(C(F)(F)F)cn3)CC2)O[C@@H]2O[C@@]3(C)CC[C@H]4[C@H](C)CC[C@@H]1[C@@]24OO3                  EC50            34.3
1  C[C@H]1[C@H](N2CCN(C(=O)Nc3ccc(C(C)(C)C)cc3)CC2)O[C@@H]2O[C@@]3(C)CC[C@H]4[C@H](C)CC[C@@H]1[C@@]24OO3                  EC50            2.92
2  C[C@H]1[C@H](N2CCN(C(=O)Nc3ccc(C(F)(F)F)cc3)CC2)O[C@@H]2O[C@@]3(C)CC[C@H]4[C@H](C)CC[C@@H]1[C@@]24OO3                  EC50             185
3  C[C@H]1[C@H](N2CCN(C(=O)c3ccc(F)cc3)CC2)O[C@@H]2O[C@@]3(C)CC[C@H]4[C@H](C)CC[C@@H]1[C@@]24OO3                  EC50             190
4  C[C@H]1[C@H](N2CCN(C(=O)Nc3ccc(F)cc3)CC2)O[C@@H]2O[C@@]3(C)CC[C@H]4[C@H](C)CC[C@@H]1[C@@]24OO3                  EC50             204

Req: Kindly indicate its recorded EC50. Item: `C[C@H]1[C@H](N2CCN(C(=O)c3ccc(C(F)(F)F)cc3)CC2)O[C@@H]2O[C@@]3(C)CC[C@H]4[C@H](C)CC[C@@H]1[C@@]24OO3`
Resp: 150

Req: Kindly indicate its recorded EC50. Item: `C[C@H]1[C@H](N2CCN(S(=O)(=O)c3ccc(C(F)(F)F)cc3)CC2)O[C@@H]2O[C@@]3(C)CC[C@H]4[C@H](C)CC[C@@H]1[C@@]24OO3`
Resp: 154
